Origin of values: patent US20250009742A1

tested on: intracellular HBV DNA; assay: Real-time PCR for intracellular HBV DNA in HepAD38 cells; type: cell-based; conditions: Hepatitis B virus, HePAD38, 65 h, 65 hours treatment
measured_quantity: IC50

Known results for compounds:
[
  {
    "compound": "COc1cc(N(Cc2cc(C(F)(F)F)[nH]n2)C(=O)Nc2ccc(F)c(Cl)c2)cnc1C#N [Example 118]",
    "IC50": "> 1.1 µM"
  },
  {
    "compound": "COc1ccc(N(Cc2cc[nH]n2)C(=O)Nc2ccc(F)c(Cl)c2)cc1 [Example 34]",
    "IC50": "> 1.1 µM"
  }
]

Here is the next item to consider.
Entry under test: COc1ccc(N(Cc2n[nH]c3c2CCCC3)C(=O)Nc2ccc(F)c(Cl)c2)cc1OC [Example 116] . Its IC50 was > 1.1 µM
